Sourced from the supplement of paper PMC6555819

Tested on: RARb homodimer (NR concentration 270 nM)
Assay: PBM binding z-score (relative to random genomic background probes); higher = stronger binding; sequences stand for … in GC…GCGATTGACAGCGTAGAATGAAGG
PBM binding z-score overview
readout: PBM binding z-score

>>> print(df.to_string())
                       chain_sequence                               test_target  observed_value
0  CGAACAAGGTCACCAGGACAGTGAAGAGGTTGGA  RARb homodimer (NR concentration 270 nM)            4.07
1  CGTCCAAGGTCAATGCTAGATCAGTGAAAGCATT  RARb homodimer (NR concentration 270 nM)            3.73
2  CCTACTGGGCCGTTCAGAGGTCATTGATCATATG  RARb homodimer (NR concentration 270 nM)            3.78
3  AGAATGAGGTCATACGTAGATCAGGGAAGAAAGT  RARb homodimer (NR concentration 270 nM)             3.6
4  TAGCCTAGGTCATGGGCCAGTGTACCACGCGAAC  RARb homodimer (NR concentration 270 nM)            3.09
5  ATTTGTAGGTTACATCCGGGTCATTCAGGCTATG  RARb homodimer (NR concentration 270 nM)            3.43

====

Parameter: PBM binding z-score. Scope: all listed entries.
System: RARa homodimer (NR concentration 270 nM)
Assay: PBM binding z-score (relative to random genomic background probes); higher = stronger binding; sequences stand for … in GC…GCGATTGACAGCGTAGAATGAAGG
readout: PBM binding z-score

                       chain_sequence  observed_value
0  GCTTACGGGTCCAAGGTTATAGCATGAATAGAAT          0.0844
1  TGTCAAAGTTCAAAGGTTACGTAAGTATCCACAC            1.12
2  CGAACTAGGTCAAGGACAGTAAATCTCCGCACGC           0.685
3  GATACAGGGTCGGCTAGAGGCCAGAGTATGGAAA          -0.471
4  CAGCATAGGTCAGGGCCAGTATAGGAGGAACGTT           0.463
5  CCGAGGAGGTTACGAGGGGGCATTCAGTGCGAAT          -0.256
6  CCTACTGGGCCAAAGAGGTCATTGATGCCGATAA           0.256
7  GGAACGAGGGCAAAGTTCATAGCATCTGTCGACG           0.559

====

Test system: FXR:RXRa (NR concentration 270 nM, RXRa partner concentration 90 nM)
Assay: PBM binding z-score (relative to random genomic background probes); higher = stronger binding; sequences stand for … in GC…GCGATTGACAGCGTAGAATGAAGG
Kindly return criterion met if reported PBM binding z-score is no lower than 4; return criterion not met if it is lower.

                        chain_sequence     classification
 0  CCGACGGGGGCAAAGGTTACCATACTCAGTACGA      criterion met
 1  ATCAAAAGGTCGAGGTGAGTATAGAGAAAGGGAA      criterion met
 2  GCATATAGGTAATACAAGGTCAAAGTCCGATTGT  criterion not met
 3  CCTAGTTGGTCAAGGTCACACCCGCTATAGGTAC  criterion not met
 4  CCTTACGGGTCAAGGTTATAGCCCGGGTGGTACG      criterion met
 5  AGTCAAAGTTCAGGACGACGTAACGTAAAGCACG  criterion not met
 6  CGTCCAAGGTCAAAGGTCAATGAAGAGATGACGG      criterion met
 7  ATCGAAAGGTCGTGAGGTAAGTATACAGAAAGGC      criterion met
 8  TCGTGTAGGTTACGGGGGCATTCAGGGATGAAGA  criterion not met
 9  GCTGCTAGTTCAACTGATGGTCAGCTAAAGCTCG  criterion not met
10  ATATGTAGTTTATCGGGTCATTCAGTTTGCGCAT  criterion not met
11  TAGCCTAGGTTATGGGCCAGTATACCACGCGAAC  criterion not met
12  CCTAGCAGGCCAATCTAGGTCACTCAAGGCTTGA  criterion not met
13  AATACAAGGTCATCGTAGGCCAGAGTACGCACAG      criterion met
14  TCTCGGAGGAAACGAAAGGTCAGAGCTCGACATC  criterion not met
15  TCTAGTTGGTCACGGAGGACACACACGACGGGTA  criterion not met
16  TCTTGTAGGTCAATAGAGGTTAAGAAAGTGCGCT      criterion met
17  CAAACTAGGTCAAAAGGTCAAAGTCCGCTTCCCG      criterion met
18  TAGCCTAGGTCATTCAGGGGCAAGTATAGAAAGC      criterion met
19  TCTAGTTGGTCAAAGGTCACGCACTCGAAATGCG      criterion met
20  ATATGTAGGTTATCGGGTCATACAGTTTGCGCAT  criterion not met
21  CCTACGGGGCCACGAAAGGTCATTGATTCAGTGA      criterion met
22  CGTCCAAGGTCATATGAGGTCAGTGAAGACAGAT      criterion met
23  ATATGTAGGATAGCTGGGGTCATTCAGACTAGGC  criterion not met

====

System: RARa homodimer (NR concentration 270 nM)
Experiment: PBM binding z-score (relative to random genomic background probes); higher = stronger binding; sequences stand for … in GC…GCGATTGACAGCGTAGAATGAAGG
Measured PBM binding z-score accompanies every entry in the list below.
readout: PBM binding z-score

>>> df
                       chain_sequence                               test_target  observed_value
0  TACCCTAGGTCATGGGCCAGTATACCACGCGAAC  RARa homodimer (NR concentration 270 nM)           0.836
1  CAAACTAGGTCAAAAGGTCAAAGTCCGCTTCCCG  RARa homodimer (NR concentration 270 nM)            5.47
2  CCTTACGGGTCACGAGGTCATAGCACGACGAGCG  RARa homodimer (NR concentration 270 nM)            2.17
3  CAAACGAGGTCAAGGTCAAAGTCGGTTTGTGCCA  RARa homodimer (NR concentration 270 nM)            2.66
4  GCTTAAGGGTCAAAGGTTATAGCATGAATAGAAT  RARa homodimer (NR concentration 270 nM)            1.94
5  ATATGTAGGTTATCTGGGGTCATTCAGACTAGGC  RARa homodimer (NR concentration 270 nM)            1.76

====

System: PPARg:RXRa 270nM:90nM, anti-RXR (NR concentration 270 nM, RXRa partner concentration 90 nM)
Assay: PBM binding z-score (relative to random genomic background probes); higher = stronger binding; sequences stand for … in GC…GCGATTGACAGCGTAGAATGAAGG
Recorded PBM binding z-score by entry
readout: PBM binding z-score

>>> print(df.to_string())
                       chain_sequence              readout  observed_value
0  CCTTAGGGGTCACTGACAGGTTATAGCATTTGGA  PBM binding z-score            8.43
1  CGAACTAGGTCGAGGACAGTGAATCTCCGCACGC  PBM binding z-score            1.98
2  GCTAGTTGGTCAGTAAAATGTCACACACCGGTCG  PBM binding z-score          -0.103
3  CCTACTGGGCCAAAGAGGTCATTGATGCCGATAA  PBM binding z-score            4.73
4  CAAACGAGGTCAAGAGGTCAAAGTCCGCTTCCCG  PBM binding z-score            7.84
5  CCTACTGGGCCACGAAAGGCCATTGATTCAGTGA  PBM binding z-score            1.21

====

System: PXR homodimer (NR concentration 270 nM)
Experiment: PBM binding z-score (relative to random genomic background probes); higher = stronger binding; sequences stand for … in GC…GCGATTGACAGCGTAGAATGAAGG
readout: PBM binding z-score

                        chain_sequence  observed_value
 0  CCTTACGGGTCACTCCAGGTCATAGCATCGGAGT            1.15
 1  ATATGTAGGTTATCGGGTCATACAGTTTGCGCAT            2.74
 2  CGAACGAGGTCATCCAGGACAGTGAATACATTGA            9.68
 3  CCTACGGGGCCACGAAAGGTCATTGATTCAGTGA            2.54
 4  AGTCAAAGTTCATCTAGGTAACATAAGATATGCT             6.9
 5  TCTCGGAGGACACAAAGGTCAGAGCTTTCCAGAG            3.76
 6  CGTACAAGGTCAAAGGTCAGTGAAGAGATGACGG            2.17
 7  AGTCAAAGTTCATCTAGGTCACGTAAGATATGCT            13.9
 8  CGAACTAGGTCAAGGCCAGTGAATCTCCGCACGC          -0.029
 9  CGAACTAGGTCATTGACAGGACAGTGGATAGTAA           0.501
10  AGAATGAGGTTACTAAAGATCAGGGAAACGCTTG           0.152
11  AGAATGAGGTCAAGATCAGGGAAACAGAATACAT            1.43
